Biological target: T1, human PACAP38 (human, not fully specified; C-terminal lysine is amidated; N-terminal or C-terminal biotin in the HTRF and PC-12 cell binding assays)
T1 peptide: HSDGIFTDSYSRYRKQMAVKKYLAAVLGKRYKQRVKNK
Experiment: cell-based or functional assay
I'd be grateful if you could share measured IC50, 5 nM PACAP38-induced human VPAC1-R mediated cAMP increase for these entries.

{"columns": ["binder", "experimental.result"],
 "data": [
  ["anti-PACAP antibody Ab9.H (antibody, human IgG1, kappa, N297A, V domains shown, humanized form of Ab9, full length) VH: EVQLVESGGGLVQPGGSLRLSCAASGFTVSRDYWICWVRQAPGKGLEWIGCISAGGGSTDYANWVNGRFTISRDISKNTGYLQMNSLRAEDTAVYYCAGNLEIWGQGTLVTVSS VL: DIQMTQSPSTLSASVGDRVTITCQSSPSIYSGAFLSWYQQKPGKAPKFLIYEASKLASGVPSRFSGSGSGTEFTLTISSLQPDDFATYYCLGFYDCSSVDCHAFGGGTKVEIKR", "2.46 nM"],
  ["anti-PACAP antibody Ab15 (antibody, human IgG1, kappa, N297A, V domains shown, full-length rabbit/human chimeric antibody) VH: QSVEASGGHLVTPGTPLTLTCTVSGFSLSSAAMNWVRQAPGKGLEWIGSVDERQNKYYASWAKGRFTISRTSSTTVNLKMTSPTTEDTATYFCARGGGEFFIWGQGTLVTVSS VL: AQVLTQTPSSVSAAVGGTVTINCQSSQSVYSNNRLSWYQQKPGQPPNLLIYEASSLASGVPSRFSGSGSGTQFTLTISDLECDDAATYYCAGAYNTGIYGFGGGTEVVVKR", "3.71 nM"]
]}

Record summary for anti-PACAP antibody Ab16 (antibody, human IgG1, kappa, N297A, V domains shown, full-length rabbit/human chimeric antibody) VH: QSVEESGGRLVTPGTPLTLTCTVSGFSLSSAAMSWVRQAPGKGLEWIGIIDDSGNTYYASWAKARFTISKTSSTTVDLKMTSPTTEDTATYFCARGGGEFFIWGPGTLVTVSS VL: DPVLTQTPSSVSAAVGGTVTINCQSSQSVYNNKWLSWYQQKPGQSPKFLIYQASNLASGVPSRFKGSGSGTQFTLTISDLECDDGATYYCAGGYRGNVCGFGGGTEVVVKR : reported IC50, 5 nM PACAP38-induced human VPAC1-R mediated cAMP increase = 3.53 nM
